Molecular target: SALL4 ZFC4 G921D (HT-SELEX) (Mus musculus, UniProt Q8BX22 870-940, G921D)
Sequence: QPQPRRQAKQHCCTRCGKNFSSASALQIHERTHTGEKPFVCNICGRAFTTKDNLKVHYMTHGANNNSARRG
Assay: HT-SELEX; high values mean tight binding
Conditions: protein: recombinant; vector His6-GST; dsDNA, one strand shown
Threshold rule: binding signal greater than or equal to 1 fold-change vs cycle 0 is 1; below that, -1.

Please review the following examples before continuing.
INSERT INTO assay_data (biopolymer_sequence, study_system, class_assignment) VALUES
  ('CCGATC', 'SALL4 ZFC4 G921D (HT-SELEX) (Mus musculus, UniProt Q8BX22 870-940, G921D)', -1),
  ('CAAAAC', 'SALL4 ZFC4 G921D (HT-SELEX) (Mus musculus, UniProt Q8BX22 870-940, G921D)', 1),
  ('CAAAAG', 'SALL4 ZFC4 G921D (HT-SELEX) (Mus musculus, UniProt Q8BX22 870-940, G921D)', 1),
  ('GAATGA', 'SALL4 ZFC4 G921D (HT-SELEX) (Mus musculus, UniProt Q8BX22 870-940, G921D)', 1),
  ('CTATTC', 'SALL4 ZFC4 G921D (HT-SELEX) (Mus musculus, UniProt Q8BX22 870-940, G921D)', 1),
  ('AAACCC', 'SALL4 ZFC4 G921D (HT-SELEX) (Mus musculus, UniProt Q8BX22 870-940, G921D)', -1),
  ('CGCTCC', 'SALL4 ZFC4 G921D (HT-SELEX) (Mus musculus, UniProt Q8BX22 870-940, G921D)', -1),
  ('CCTCCG', 'SALL4 ZFC4 G921D (HT-SELEX) (Mus musculus, UniProt Q8BX22 870-940, G921D)', -1);

Could you verify whether the entry `CGTTGC` shows binding signal of no less than 1 fold-change vs cycle 0?
-1

Could you verify whether the entry `AAAAGT` shows binding signal of no less than 1 fold-change vs cycle 0?
1
